Test Target: Plasma kallikrein (Human)
Sequence (P03952 20-390 S143N limits assumed): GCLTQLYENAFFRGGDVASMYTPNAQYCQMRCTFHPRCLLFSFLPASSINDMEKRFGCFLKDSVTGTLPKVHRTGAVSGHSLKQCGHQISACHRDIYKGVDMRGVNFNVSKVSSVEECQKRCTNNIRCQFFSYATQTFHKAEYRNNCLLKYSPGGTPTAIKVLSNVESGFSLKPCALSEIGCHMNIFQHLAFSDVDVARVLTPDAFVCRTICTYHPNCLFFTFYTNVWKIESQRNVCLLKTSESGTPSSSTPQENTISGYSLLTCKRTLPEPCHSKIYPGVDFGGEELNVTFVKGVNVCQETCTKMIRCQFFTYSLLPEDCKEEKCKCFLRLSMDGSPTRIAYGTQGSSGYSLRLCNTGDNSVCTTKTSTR
Sequence (P03952 391-638 limits assumed): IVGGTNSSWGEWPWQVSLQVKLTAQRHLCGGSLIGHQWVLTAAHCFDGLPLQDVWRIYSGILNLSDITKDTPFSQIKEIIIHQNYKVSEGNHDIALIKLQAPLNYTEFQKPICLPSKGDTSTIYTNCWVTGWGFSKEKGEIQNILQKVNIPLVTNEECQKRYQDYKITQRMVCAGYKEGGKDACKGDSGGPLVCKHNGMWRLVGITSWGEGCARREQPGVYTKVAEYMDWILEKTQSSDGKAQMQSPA
Experimental Protocol: Protease Inhibition Assay
Condition Parameters: pH 7.4
Measure Name: Ki (nM)

I. CSCc1nc(CSC)nc(CSC)n1
II. CSCc1cc(CSC)cc(CSC)c1
III. CSCC(=O)N1CN(C(=O)CSC)CN(C(=O)CSC)C1
Task: Take the compounds listed above and rank them by Ki; the top slot goes to the highest value. Provide your answer as the labels ordered per the instruction.
Result: III, I, II

###

Test Target: Coagulation factor XII (Homo sapiens)
Sequence (P00748 20-372 limits assumed): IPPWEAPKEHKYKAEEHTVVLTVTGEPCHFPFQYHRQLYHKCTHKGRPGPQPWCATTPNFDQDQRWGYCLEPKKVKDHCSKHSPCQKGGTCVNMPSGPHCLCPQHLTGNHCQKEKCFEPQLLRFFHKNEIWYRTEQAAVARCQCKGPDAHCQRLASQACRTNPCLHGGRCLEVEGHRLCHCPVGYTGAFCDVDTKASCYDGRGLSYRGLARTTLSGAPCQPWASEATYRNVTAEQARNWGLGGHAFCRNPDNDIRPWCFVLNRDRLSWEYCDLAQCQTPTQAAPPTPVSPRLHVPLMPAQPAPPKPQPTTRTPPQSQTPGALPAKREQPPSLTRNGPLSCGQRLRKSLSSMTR
Sequence (P00748 373-615 limits assumed): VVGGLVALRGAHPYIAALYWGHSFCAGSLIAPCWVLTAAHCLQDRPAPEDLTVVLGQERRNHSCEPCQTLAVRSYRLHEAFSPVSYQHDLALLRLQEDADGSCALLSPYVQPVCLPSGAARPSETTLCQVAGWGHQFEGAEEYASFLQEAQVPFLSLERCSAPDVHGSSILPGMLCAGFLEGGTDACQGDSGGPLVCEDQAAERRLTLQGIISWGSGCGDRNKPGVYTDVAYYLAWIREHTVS
Experimental Protocol: Protease Inhibition Assay
Condition Parameters: pH 7.4
Measure Name: pKi
// scale note: pKi = -log10(conc_M); give the bare number

Task: State the measured pKi (Coagulation factor XII (Homo sapiens)) of CSCC(=O)N1CN(C(=O)CSC)CN(C(=O)CSC)C1 [TATB-FXII618 (15)]
Result: 6.47
